A collection of compounds and their measured IC50
# Test system: S. mutans biofilm
# assay-procedure: S. mutans biofilm formation and inhibition assay (96-well plates, crystal violet)
# Assay type: cell-based, Streptococcus mutans
# applied-conditions: read-out: S. mutans biofilm IC50
recorded-endpoint: IC50 (µM)

compound="Oc1cc(O)cc(/C=C/c2ccc(O)c(O)c2)c1 [Compound 8]" recorded_endpoint=IC50 measurement_unit=µM number=52
compound="N=C(N)c1ccc(/C=C/c2ccc(C(=N)N)cc2O)cc1 [Compound 5]" recorded_endpoint=IC50 measurement_unit=µM number=104

* * *

# Test system: S. mutans biofilm
# assay-procedure: S. mutans biofilm formation and inhibition assay (96-well plates, crystal violet)
# Type: cell-based, Streptococcus mutans
# applied-conditions: Streptococcus mutans, Table 4, stilbenes; NI = no inhibition; read-out: Biofilm IC50
# Protocol: Biofilm assays using 96-well flat-bottom polystyrene microtiter plates were performed to evaluate S. mutans biofilm formation at various conditions as described (Liu et al. (2011) Antimicrobial Agents and Chemotherapy 55, 2679; Zhang et al. (2015) International Journal of Antimicrobial Agents 46, 174), the disclosures of which are incorporated herein by reference in their entirety). […] Compounds that inhibited biofilm formation at minimum concentration (MBIC) were determined by serial dilutions. […]
recorded-endpoint: IC50 (µM)

compound="COc1cc(O)cc(/C=C/c2ccccc2)c1 [Entry 6]" recorded_endpoint=IC50 measurement_unit=µM number=477
compound="COc1cc(/C=C/c2ccc(OC)c(O)c2)cc(OC)c1 [Entry 9]" recorded_endpoint=IC50 measurement_unit=µM number=122
compound="C[n+]1ccc(/C=C/c2ccc(O)c(O)c2)c2ccccc21 [Entry 11]" recorded_endpoint=IC50 measurement_unit=µM number=104
compound="N=C(N)c1ccc(/C=C/c2ccc(C(=N)N)cc2O)cc1 [Entry 5]" recorded_endpoint=IC50 measurement_unit=µM number=104
compound="Oc1ccc(/C=C/c2ccc(O)cc2)cc1 [Entry 4]" recorded_endpoint=IC50 measurement_unit=µM number=344
compound="Oc1cc(O)cc(/C=C/c2ccc(O)c(O)c2)c1 [Piceatannol]" recorded_endpoint=IC50 measurement_unit=µM number=52
compound="COc1ccc(/C=C/c2cc(O)cc(O[C@@H]3O[C@H](CO)[C@@H](O)[C@H](O)[C@H]3O)c2)cc1O [Entry 12]" recorded_endpoint=IC50 measurement_unit=µM number=106
compound="O=C(/C=C/c1ccc(O)c(O)c1)O[C@@H]1C[C@](O)(C(=O)O)C[C@@H](O)[C@H]1O [Entry 10]" recorded_endpoint=IC50 measurement_unit=µM number=518

* * *

# Tested on: S. mutans biofilm
# assay-procedure: S. mutans biofilm formation and inhibition assay (96-well plates, crystal violet)
# Assay type: cell-based, Streptococcus mutans
# applied-conditions: Streptococcus mutans, Table 2; read-out: Biofilm Inhibition IC50
pIC50: −log10 of the molar value.
A collection of molecules and their measured pIC50
recorded-endpoint: pIC50

molecule="NC(=O)c1ccccc1NC(=O)c1ccc2ncsc2c1 [SN-I-271U]" number=4.44
molecule=[N-]=[N+]=Nc1ccc(C(=O)Nc2ccccc2C(N)=O)cc1 number=3.67
molecule=NC(=O)c1ccccc1NC(=O)c1cnc2ccc(Br)cc2c1 number=3.97
molecule=COC(=O)c1cccc(NC(=O)c2ccc3ccccc3n2)c1 number=4.03
molecule=NC(=O)c1ccccc1NC(=O)c1cc2cc([N+](=O)[O-])ccc2o1 number=3.99

* * *

# Test system: S. mutans biofilm
# assay-procedure: S. mutans biofilm formation and inhibition assay (96-well plates, crystal violet)
# Type: cell-based, Streptococcus mutans
# applied-conditions: Streptococcus mutans, Table 2; read-out: Biofilm Inhibition IC50
pIC50: −log10 of the molar value.
A collection of compounds and their measured pIC50
recorded-endpoint: pIC50

compound=NC(=O)c1ccccc1OC(=O)c1ccc2ccccc2n1 recorded_endpoint=pIC50 number=3.98
compound=CCc1ccccc1NC(=O)c1cc2cc([N+](=O)[O-])ccc2s1 recorded_endpoint=pIC50 number=3.80
compound=NC(=O)c1ccccc1NC(=O)c1c[nH]c2ccccc12 recorded_endpoint=pIC50 number=3.84
compound=NC(=O)c1cccc(NC(=O)c2ccc3ccccc3c2)c1 recorded_endpoint=pIC50 number=4.17
compound=CC(C)(C)OC(=O)NCc1ccccc1NC(=O)c1cc2cc([N+](=O)[O-])ccc2[nH]1 recorded_endpoint=pIC50 number=4.57
compound=NC(=O)c1cc(NC(=O)c2cc3cc([N+](=O)[O-])ccc3s2)ccc1[N+](=O)[O-] recorded_endpoint=pIC50 number=4.63
compound=COC(=O)c1cccc(NC(=O)c2cc3cc(N/C(=N\C(=O)OC(C)(C)C)NC(=O)OC(C)(C)C)ccc3o2)c1 recorded_endpoint=pIC50 number=4.85
compound=NC(=O)c1ccc(NC(=O)c2cccc3ccccc23)cc1 recorded_endpoint=pIC50 number=3.78
compound=NC(=O)c1ccccc1NC(=O)c1cnc2ccccc2c1 recorded_endpoint=pIC50 number=4.82
compound=O=C(Nc1ccccc1F)c1cc2cc([N+](=O)[O-])ccc2s1 recorded_endpoint=pIC50 number=3.79
compound=[N-]=[N+]=Nc1ccc2sc(C(=O)Nc3ccccc3C(N)=O)cc2c1 recorded_endpoint=pIC50 number=4.24
compound="O=C(O)c1ccc(NC(=O)c2cc3cc([N+](=O)[O-])ccc3s2)cc1 [SN-I-272OH]" recorded_endpoint=pIC50 number=4.81
compound=COC(=O)c1cccc(NC(=O)c2cc3cc([N+](=O)[O-])ccc3o2)c1 recorded_endpoint=pIC50 number=5.57
compound=COC(=O)c1cccc(NC(=O)c2cc3cc(N)ccc3o2)c1 recorded_endpoint=pIC50 number=5.26
compound=NC(=O)c1ccccc1NC(=O)c1cc2ccccc2s1 recorded_endpoint=pIC50 number=4.34
compound=CC(C)(C)OC(=O)NCc1ccccc1NC(=O)c1cnc2ccccc2c1 recorded_endpoint=pIC50 number=4.28
compound=NCc1ccccc1NC(=O)c1cc2cc([N+](=O)[O-])ccc2s1 recorded_endpoint=pIC50 number=3.97
compound=CC(C)(C)OC(=O)NCc1ccccc1NC(=O)c1cc2ccccc2s1 recorded_endpoint=pIC50 number=4.36
compound=COC(=O)c1ccc(NC(=O)c2cc3cc([N+](=O)[O-])ccc3o2)cc1 recorded_endpoint=pIC50 number=3.84
compound=CC(C)(C)OC(=O)NCc1ccccc1NC(=O)c1ccc2ccccc2n1 recorded_endpoint=pIC50 number=4.17
compound=COC(=O)c1cccc(NC(=O)c2cc3cc(NC(=N)N)ccc3o2)c1 recorded_endpoint=pIC50 number=4.78
compound=NC(=O)c1ccccc1OC(=O)c1cnc2ccccc2c1 recorded_endpoint=pIC50 number=4.52
compound=COC(=O)c1ccc(NC(=O)c2cc3ccccc3s2)cc1 recorded_endpoint=pIC50 number=4.39
compound="Cl.NC(=O)c1ccccc1NC(=O)c1cc2cc(N)ccc2s1 [SN-II-81Cl]" recorded_endpoint=pIC50 number=5.02
compound=NC(=O)c1ccccc1NC(=O)c1ccc2ncoc2c1 recorded_endpoint=pIC50 number=4.19
compound=NC(=O)c1cccc(NC(=O)c2cc3ccccc3s2)c1 recorded_endpoint=pIC50 number=3.94
compound=NC(=O)c1cccc(NC(=O)c2ccccc2-c2ccccc2)c1 recorded_endpoint=pIC50 number=4.31
compound=NC(=O)c1ccccc1OC(=O)c1ccc(-c2ccccc2)cc1 recorded_endpoint=pIC50 number=4.25
compound=NC(=O)c1ccc(NC(=O)c2ccc3ccccc3c2O)cc1 recorded_endpoint=pIC50 number=4.24
compound=[N-]=[N+]=Nc1ccc(NC(=O)c2cc3cc([N+](=O)[O-])ccc3s2)cc1 recorded_endpoint=pIC50 number=3.60
compound=NC(=O)c1cccc(NC(=O)c2cc3cc([N+](=O)[O-])ccc3[nH]2)c1 recorded_endpoint=pIC50 number=3.86
compound=NCc1ccccc1NC(=O)c1ccc2ccccc2c1 recorded_endpoint=pIC50 number=3.80

Source: patent US11866416B2
